TESTED_SYSTEM: Epidermal growth factor receptor (Homo sapiens)
TEST_SUMMARY: compounds binding epidermal growth factor receptor – biochemical, small-molecule microarray, 635 nm fluorescence, primary screen (AID 1104);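 note: score merges 667 nm emission intensity with spot signal to noise over triplicate slides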
RUN_CONDITIONS: EGFR binding, higher = more signal
Decision: composite z-score >= -0.3 yields 1 (yes), all other cases yield 0 (no).

{"STRUCTURE_NOTATION": "CC(C)c1nc2cc(Br)ccc2c(=O)o1", "ASSIGNED_LABEL": "1 (yes)"}
{"STRUCTURE_NOTATION": "C=C(COC)/C(=C/C[C@H](OC(C)=O)c1ccccc1OCCO)c1cc(C(=O)OC)ccc1OC", "ASSIGNED_LABEL": "0 (no)"}
{"STRUCTURE_NOTATION": "CCCCCCc1nc(Cc2cc(OC)c(OC)c(OC)c2)cc2c1[Si](C(C)C)(C(C)C)O[C@H]2c1ccccc1", "ASSIGNED_LABEL": "1 (yes)"}
{"STRUCTURE_NOTATION": "O=C(NCCN1CCOCC1)[C@@H]1c2ccccc2C(=O)N(Cc2ccccc2C(F)(F)F)[C@H]1c1ccc(CO)cc1", "ASSIGNED_LABEL": "0 (no)"}
{"STRUCTURE_NOTATION": "C=CCOC(=O)[C@@H]1[C@H]2C(=O)O[C@H](c3ccccc3)[C@H](c3ccccc3)N2[C@H](c2ccc(OCCOC(=O)[C@H]3C[C@H]4C(=O)N5CCC[C@H]5C(=O)N4[C@H]3c3cccc(OCCO)c3)cc2)[C@@]12C(=O)Nc1ccc(I)cc12", "ASSIGNED_LABEL": "1 (yes)"}
{"STRUCTURE_NOTATION": "COC(=O)[C@@]1(Cc2ccccc2)[C@H]2c3cc(C(=O)N4CCCC4)n(Cc4ccc(OC)c(OC)c4)c3C[C@H]2CN1C(=O)c1ccccc1", "ASSIGNED_LABEL": "1 (yes)"}
{"STRUCTURE_NOTATION": "CC(C)N1C(=O)c2ccccc2[C@@H](C(=O)NCC(F)(F)F)[C@@H]1c1ccc(CO)cc1", "ASSIGNED_LABEL": "0 (no)"}

----------
# composite z-score annotations
TESTED_SYSTEM: Carbonic anhydrase 2 (Homo sapiens) (UniProt P00918)
TEST_SUMMARY: compounds binding carbonic anhydrase 2 – biochemical, small-molecule microarray, Alexa647-labelled CAII, profiling panel (AID 1122)
RUN_CONDITIONS: CAII-A647 binding fluorescence, higher = more signal

{"COMPOUND": "CCCNC(=O)[C@@]1(Sc2ccc(C)cc2)CC(=O)N(Cc2ccccc2Cl)[C@@H]1c1ccc(CO)cc1I", "composite z-score": 0.529}
{"COMPOUND": "COc1ccc(NN2C(C(O)c3ccc(I)cc3)C=CC3C(=O)N(C4CCCCC4)C(=O)C32)cc1 (centres undefined)", "composite z-score": 0.444}
{"COMPOUND": "CC(C)(C)N1CC=CC23O[C@@H]4/C=C\\CCCOC(=O)C4[C@H]2C(=O)N(CCCO)[C@@H]3C1=O (some centres undefined)", "composite z-score": 0.866}
{"COMPOUND": "COCCOC(=O)N1C(=O)[C@@]2(c3ccccc31)[C@H](c1ccc(O)cc1)N1[C@H](c3ccccc3)[C@H](c3ccccc3)OC(=O)[C@H]1[C@@H]2C(=O)N1CCCCCCC1", "composite z-score": 0.863}
{"COMPOUND": "COCCOC(=O)N1C(=O)[C@@]2(c3cc(C#CC4(O)CCCCCC4)ccc31)[C@H](c1ccc(O)cc1)N1[C@H](c3ccccc3)[C@H](c3ccccc3)OC(=O)[C@H]1[C@@H]2C(=O)N1CCCCCCC1", "composite z-score": 0.267}
{"COMPOUND": "C=C(CCCC)C(=O)CC[C@@H](OC(=O)c1ccccc1-c1ccccc1C(=O)O)c1ccccc1OCCO", "composite z-score": 0.626}
{"COMPOUND": "COC(=O)C(CC#Cc1ccc2c(c1)[C@]1(C(=O)N2)[C@H](C(=O)NC[C@H](O)c2ccccc2)[C@H]2C(=O)O[C@H](c3ccccc3)[C@H](c3ccccc3)N2[C@@H]1c1ccccc1OCCO)C(=O)OC", "composite z-score": 0.376}
{"COMPOUND": "CCCC[C@H]1OB(O)C[C@H]2C1=C(COc1ccccc1)C[C@H]1C(=O)C=CC(=O)[C@H]12", "composite z-score": -0.173}
{"COMPOUND": "COC(=O)[C@@]1(Cc2ccc(OC)cc2)[C@H]2c3cc(C(=O)N4CCCC4)n(CCn4cc([N+](=O)[O-])nc4C)c3C[C@H]2CN1C(=O)c1ccccc1", "composite z-score": 0.62}
{"COMPOUND": "CN(C)CCCCNC(=O)[C@H]1C[C@H]2C(=O)N3CCC[C@H]3C(=O)N2[C@H]1c1cccc(OCCO)c1", "composite z-score": 0.519}
{"COMPOUND": "COc1cc(CO)cc(I)c1O[C@H]1C=C(C(=O)NCCO)C[C@@H]2O[C@H]12", "composite z-score": 0.465}
{"COMPOUND": "O=C1C2C=CC(C(O)c3cccs3)N(Nc3ccc([N+](=O)[O-])cc3)C2C(=O)N1c1ccccc1 (centres undefined)", "composite z-score": 0.759}
{"COMPOUND": "CCOC(=O)C1=CC[C@@H](c2ccc(OC)cc2)N(S(=O)(=O)c2ccc(C)cc2)[C@H]1c1ccc(C)cc1", "composite z-score": 0.222}
{"COMPOUND": "CC(C)(C)OC(=O)CC[C@]1(C(=O)NCC(O)CO)N=C(c2ccc(OCCCO)cc2)O[C@H]1c1ccccc1N=[N+]=[N-] (some centres undefined)", "composite z-score": 0.719}
{"COMPOUND": "COc1ccc([Si](C)(C)[C@H]2[C@H](CCO)O[C@@]3(C(=O)N(Cc4ccc(NC(=O)[C@H](C)O)cc4)c4ccccc43)[C@@H]2C)cc1", "composite z-score": 0.488}
{"COMPOUND": "COCCOC(=O)N1C(=O)[C@@]2(c3cc(C#CCCO)ccc31)[C@H](c1ccc(OCCO)cc1)N1[C@H](c3ccccc3)[C@H](c3ccccc3)OC(=O)[C@H]1[C@@H]2C(=O)N1CCCCCCC1", "composite z-score": 0.67}
{"COMPOUND": "CC1CC/C=C\\[C@H]2OC34C=CCN(C(C)(C)C)C(=O)[C@H]3N(CCCO)C(=O)[C@@H]4C2C(=O)O1 (some centres undefined)", "composite z-score": 0.916}
{"COMPOUND": "C=CCC(OC(C)=O)[C@@H]1[C@@H](N(Cc2cccc3ccccc23)C(=O)Cc2ccc(OC)cc2)c2cc(OCCCO)ccc2N1C(=O)Cc1ccc2ccccc2c1 (some centres undefined)", "composite z-score": 0.0435}
{"COMPOUND": "CN(C)c1ccc(C(O)C2C=CC3C(=O)N(Cc4ccccc4)C(=O)C3N2n2cnnc2)cc1 (centres undefined)", "composite z-score": 0.244}
{"COMPOUND": "CC=CC(O)C1C=CC2C(=O)NC(=O)C2N1Nc1ccc(Cl)cc1Cl (centres undefined)", "composite z-score": 0.59}
{"COMPOUND": "Cc1ccc(S[C@]2(C(=O)NCC(F)(F)F)CC(=O)N(Cc3ccccc3C(F)(F)F)[C@@H]2c2ccc(CO)cc2)cc1", "composite z-score": 0.653}
{"COMPOUND": "CC(C)=CCCC=C(C)C(O)C1C=CC2C(=O)N(c3ccccc3)C(=O)C2N1Nc1ccc(C#N)cc1 (centres undefined)", "composite z-score": 0.596}
{"COMPOUND": "COC(=O)[C@@]1(Cc2ccc(F)cc2)[C@H]2c3cc(C(=O)N(C)C)n(C)c3C[C@H]2CN1C(=O)c1ccccc1", "composite z-score": 0.777}
{"COMPOUND": "COC(=O)[C@@]1(Cc2ccc(F)cc2)[C@H]2c3cc(C(=O)N4CCCC4)n(Cc4ccccn4)c3C[C@H]2CN1C(=O)c1ccccc1", "composite z-score": 0.482}
{"COMPOUND": "COCCn1c(C(=O)N(C)C)cc2c1C[C@H]1CN(C(=O)c3ccccc3)[C@@](Cc3ccc(OC)cc3)(C(=O)OC)[C@@H]21", "composite z-score": 0.659}
{"COMPOUND": "O=C(N1CCOCC1)[C@@]1(Cc2ccccc2)COC(c2ccc(OCCCO)cc2)=N1", "composite z-score": 0.769}
{"COMPOUND": "O=C1OCCC=C[C@H]2OC34C=CCN(c5ccc6ccccc6c5)C(=O)[C@H]3N(CCO)C(=O)[C@@H]4C12 (some centres undefined)", "composite z-score": 0.368}
{"COMPOUND": "COC(=O)[C@@]1(Cc2ccc(F)cc2)[C@H]2c3cc(C(=O)N4CCCC4)n(CCc4ccccn4)c3C[C@H]2CN1C(=O)c1ccccc1", "composite z-score": 0.852}
{"COMPOUND": "CCN(CC)c1ccc(N2CC=CC34O[C@@H]5C=CCCOC(=O)C5[C@H]3C(=O)N(C(C)CO)[C@@H]4C2=O)cc1 (some centres undefined)", "composite z-score": 0.835}
